From: patent US11702404B2

assay: Microsomal stability, human liver microsomes (predicted hepatic clearance); details: predicted from in vitro microsomal stability data
Label rule, in plain words: Predicted Hepatic Clearance (Pred. Cl.) of 5 mL/min/kg and up is condition met, under 5 mL/min/kg is condition not met.

Molecule	Category Label
COCCn1c(Cc2cc(F)c(-c3cccc(OCc4ccc(C#N)cc4)n3)cc2F)nc2ccc(C(=O)O)cc21 [Example 604]	condition not met
N#Cc1ccc(COc2cccc(-c3ccc(Cc4nc5ccc(C(=O)O)cc5n4CC4CC4)c(F)c3)n2)c(F)c1 [Example 389]	condition not met
COCCn1c(Cc2ccc(-c3cccc(OCc4ccc(Cl)cn4)n3)cc2F)nc2ccc(C(=O)O)cc21 [Example 693]	condition met
CO[C@@H](CO)Cn1c(Cc2cc(F)c(-c3cccc(OCc4ccc(C#N)cc4F)n3)cc2F)nc2ccc(C(=O)O)cc21 [Example 619]	condition met
COCCn1c(Cc2ccc(-c3cccc(OCc4ccc(C#N)cc4F)n3)cn2)nc2ccc(C(=O)NS(=O)(=O)C3CC3)cc21 [Example 54]	condition not met
CN1CCO[C@@H](Cn2c(Cc3cc(F)c(-c4cccc(OCc5ccc(C#N)cc5F)n4)cc3F)nc3ccc(C(=O)O)cc32)C1 [Example 651]	condition not met
COCCn1c(Cc2c(F)cc(-c3ccnc(OCc4ccc(C#N)cc4F)n3)c(F)c2F)nc2ccc(C(=O)O)cc21 [Example 405]	condition met
COCCn1c(Cc2ccc(-c3cccc(OCc4cccc(OC(F)F)c4F)n3)cc2F)nc2ccc(C(=O)O)cc21 [Example 138]	condition met
N#Cc1ccc(COc2cccc(-c3cc(F)c(Cc4nc5ccc(C(=O)O)cc5n4[C@H]4COC[C@H]4F)cc3F)n2)c(F)c1 [Example 611]	condition not met
COCCn1c(Cc2ccc(-c3cccc(OCc4ccc(C#N)cc4F)n3)cc2F)nc2ncc(C(=O)O)cc21 [Example 71]	condition not met
COCCn1c(Cc2cc(F)c(-c3nc(OCc4ccc(C#N)cc4F)ccc3F)cc2F)nc2c(F)cc(C(=O)O)cc21 [Example 791]	condition not met
CCn1cncc1Cn1c(Cc2ccc(-c3cccc(OCc4ccc(C#N)cc4F)c3)cc2F)nc2ccc(C(=O)O)cc21 [Example 527]	condition not met
N#Cc1ccc(COc2cccc(-c3cc(F)c(Cc4nc5ccc(C(=O)O)cc5n4CC45CC(C4)C(C(F)(F)F)O5)cc3F)n2)c(F)c1 (stereo not drawn) [Example 737]	condition not met
O=C(O)c1ccc2nc(Cc3ccc(-c4ccc(F)c(OCc5ccc(C(F)F)cc5F)n4)cc3F)n(C[C@@H]3CCO3)c2c1 [Example 773]	condition not met
N#CCC1(Cn2c(Cc3ccc(-c4cccc(OCc5ccc(C#N)cc5F)n4)cc3F)nc3ccc(C(=O)O)cc32)CC1 [Example 16]	condition met
N#Cc1ccc(COc2ccc(F)c(-c3cc(F)c(Cc4nc5c(F)cc(C(=O)O)cc5n4CC4(CF)CC4)cc3F)n2)c(F)c1 [Example 760]	condition met
N#Cc1ccc(COc2cccc(-c3cc(F)c(Cc4nc5ccc(C(=O)O)cc5n4CCOCC(F)F)cc3F)n2)c(F)c1 [Example 828]	condition met
COc1cc(Cl)ccc1COc1nccc(-c2cc(F)c(Cc3nc4ccc(C(=O)O)cc4n3CC3(CF)CC3)cc2F)n1 [Example 414]	condition met
COCCn1c(C(C)c2ccc(-c3cccc(OCc4ccc(C#N)cc4F)n3)cc2)nc2ccc(C(=O)O)cc21 (single isomer, unassigned) [Example 418]	condition not met
COCCn1c(Cc2cc(F)c(-c3cccc(OCc4ccc(C(C)=O)cc4)n3)cc2F)nc2ccc(C(=O)O)cc21 [Example 875]	condition met
COCCn1c(Cc2c(F)cc(-c3cccc(OCc4ccc(C#N)cc4F)n3)c(F)c2F)nc2ccc(C(=O)O)cc21 [Example 401]	condition met
COCCn1c(Cc2ncc(-c3cccc(OCc4ccc(C#N)cc4F)n3)cc2F)nc2ccc(C(=O)O)cc21 [Example 60]	condition not met
N#CCC1(Cn2c(Cc3cc(F)c(-c4ncc(F)c(OCc5ccc(C#N)cc5F)n4)cc3F)nc3ccc(C(=O)O)cc32)CC1 [Example 133]	condition met
COCCn1c(Cc2ccc(-c3cccc(OCc4nccn4C)n3)cc2F)nc2ccc(C(=O)O)cc21 [Example 512]	condition met
N#Cc1ccc(COc2cccc(-c3cc(F)c(Cc4nc5ccc(C(=O)O)cc5n4C[C@@H]4CCO4)cc3F)n2)cn1 [Example 807]	condition not met
N#CCC1(Cn2c(Cc3ccc(-c4ccnc(OCc5ccc(C#N)cc5F)n4)cc3F)nc3c(F)cc(C(=O)O)cc32)CC1 [Example 168]	condition not met
COCCn1c(Cc2cc(F)c(-c3cccc(OCc4ccc(C#N)cc4F)n3)cc2CO)nc2ccc(C(=O)O)cc21 [Example 753]	condition met

----------
assay: Microsomal stability, human liver microsomes (predicted hepatic clearance); settings: predicted from in vitro microsomal stability data
Rule for this label: yes means Predicted Hepatic Clearance (Pred. Cl.) is less than 0.3 L/h/kg; no means Predicted Hepatic Clearance (Pred. Cl.) is at least 0.3 L/h/kg.

Compound	Category Label
N#Cc1ccc(COc2cccc(-c3ccc(Cc4nc5ccc(C(=O)O)cc5n4CC4CCS4(=O)=O)c(F)c3)n2)c(F)c1 (stereo not shown) [Example 17]	yes
COCCn1c(Cc2ccc(-c3cccc(OCc4ccc(Cl)cc4OCC(F)(F)F)n3)cc2F)nc2ccc(C(=O)O)cc21	yes
N#Cc1ccc(COc2nccc(-c3cc(F)c(Cc4nc5ccc(C(=O)O)cc5n4CC4(CF)CC4)c(F)c3)n2)c(F)c1	yes
CO[C@@H]1COC[C@@H]1n1c(Cc2cc(F)c(-c3cccc(OCc4ccc(C#N)cc4F)n3)cc2F)nc2ccc(C(=O)O)cc21	no
O=C(O)c1ccc2nc(Cc3ccc(-c4cccc(OCc5ccc(Cl)nc5)n4)c(F)c3)n(C[C@@H]3CCO3)c2c1	no
N#Cc1cc(F)c(COc2nc(-c3cc(F)c(Cc4nc5c(F)cc(C(=O)O)cc5n4C[C@@H]4CCO4)cc3F)ccc2F)cc1F	yes
O=C(O)c1ccc2nc(Cc3ccc(-c4ccnc(OCc5ccc(Cl)cc5F)n4)c(F)c3)n(CC3(CF)CC3)c2n1	yes

----------
molecular target: UniProt P43220; experiment: GLP-1R activation: cAMP increase in CHO cells stably expressing GLP-1R; assay type: cell-based; conditions: cAMP increase, CHO cells stably expressing GLP-1R, 10 point dose response, 30 minutes incubation; read-out: EC50
pEC50: −log10 of the molar value.
The compounds listed here are annotated with their pEC50.

Compound	Assay System	pEC50
N#Cc1ccc(COc2cccc(-c3ccc(Cc4nc5ccc(C(=O)O)cc5n4C[C@@H]4CCCO4)cc3F)n2)c(F)c1 [Example 834]	UniProt P43220	9.16
COCCn1c(Cn2ccc(-c3cccc(OCc4ccc(C#N)cc4F)n3)cc2=O)nc2ccc(C(=O)O)cc21 [Example 61]	UniProt P43220	7.74
COCCn1c(Cc2cc(F)c(-c3cccc(OCc4ccc(C(F)F)nc4)n3)cc2F)nc2ccc(C(=O)O)cc21 [Example 860]	UniProt P43220	7.65
CC1(Cn2c(Cc3cc(F)c(-c4cccc(OCc5ccc(C#N)cc5F)n4)cc3F)nc3ccc(C(=O)O)cc32)CCOCC1 [Example 839]	UniProt P43220	8.15

----------
The molecules listed here are annotated with their pEC50.
target: GLP-1R (Homo sapiens, UniProt P43220); experiment: GLP-1R activation: cAMP increase in CHO cells stably expressing GLP-1R; format: cell-based; conditions: cAMP increase, CHO cells stably expressing GLP-1R, 10 point dose response, 30 minutes incubation; read-out: EC50
Sequence (P43220 24-463): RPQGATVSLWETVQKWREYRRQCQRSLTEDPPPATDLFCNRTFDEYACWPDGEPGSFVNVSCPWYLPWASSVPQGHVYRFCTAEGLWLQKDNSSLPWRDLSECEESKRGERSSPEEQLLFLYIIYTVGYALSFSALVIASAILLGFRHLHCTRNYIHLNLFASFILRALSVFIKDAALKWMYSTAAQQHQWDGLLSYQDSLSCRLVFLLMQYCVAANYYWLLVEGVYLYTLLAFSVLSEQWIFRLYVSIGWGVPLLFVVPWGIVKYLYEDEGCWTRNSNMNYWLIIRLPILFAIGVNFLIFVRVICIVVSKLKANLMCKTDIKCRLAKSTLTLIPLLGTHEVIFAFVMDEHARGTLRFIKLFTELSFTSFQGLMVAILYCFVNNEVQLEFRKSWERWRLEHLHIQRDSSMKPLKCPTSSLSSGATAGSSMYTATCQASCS
pEC50: −log10 of the molar value.

Molecule	Assay System	pEC50
N#CCCn1c(Cc2cc(F)c(-c3cccc(OCc4ccc(C#N)cc4F)n3)cc2F)nc2ccc(C(=O)O)cc21	GLP-1R (Homo sapiens, UniProt P43220)	8.90
COCCn1c(Cc2ccc(-c3cccc(OCc4ccc(C#N)cc4F)n3)cc2Cl)nc2ccc(C(=O)O)cc21	GLP-1R (Homo sapiens, UniProt P43220)	8.21
N#Cc1ccc(COc2cccc(-c3cc(F)c(Cc4nc5c(F)cc(C(=O)O)cc5n4Cc4ncco4)cc3F)n2)c(F)c1	GLP-1R (Homo sapiens, UniProt P43220)	9.64
COCCn1c(Cc2ccc(-c3cccc(OCc4ccc(C#N)cc4F)n3)cc2C#CC(C)(C)O)nc2ccc(C(=O)O)cc21	GLP-1R (Homo sapiens, UniProt P43220)	7.69
COCCn1c(Cc2cc(F)c(-c3cccc(OCc4cccnc4OC(F)F)n3)cc2F)nc2ccc(C(=O)O)cc21	GLP-1R (Homo sapiens, UniProt P43220)	8.07
CC12CCC(Cn3c(Cc4cc(F)c(-c5cccc(OCc6ccc(C#N)cc6F)n5)cc4F)nc4ccc(C(=O)O)cc43)(C1)OC2 (stereo not drawn)	GLP-1R (Homo sapiens, UniProt P43220)	7.60
COCCn1c(Cc2ccc(-c3ccnc(OCc4ccc(C#N)cc4OC)n3)c(F)c2)nc2ccc(C(=O)O)cc21	GLP-1R (Homo sapiens, UniProt P43220)	8.47
COCCn1c(Cc2ccc(-c3cccc(OCc4cc(F)c(Cl)cc4OC)n3)cc2F)nc2ccc(C(=O)O)cc21	GLP-1R (Homo sapiens, UniProt P43220)	8.54
COCCn1c(Cc2ccc(-c3cc(C)cc(OCc4ccc(C#N)cc4F)n3)cc2F)nc2ccc(C(=O)O)cc21	GLP-1R (Homo sapiens, UniProt P43220)	7.49
COCCn1c(Cc2ccc(-c3cccc(OCc4ccc(C#N)c5ccccc45)n3)cc2F)nc2ccc(C(=O)O)cc21	GLP-1R (Homo sapiens, UniProt P43220)	7.25
COCCn1c(Cc2ccc(-c3cccc(OCc4ccc(C#Cc5cncnc5)cc4F)n3)cc2F)nc2ccc(C(=O)O)cc21	GLP-1R (Homo sapiens, UniProt P43220)	8.33
N#Cc1ccc(COc2cccc(-c3cc(F)c(Cc4nc5ccc(C(=O)O)cc5n4CC4CCOCC4)cc3F)n2)c(F)c1	GLP-1R (Homo sapiens, UniProt P43220)	9.48
COCCn1c(Cc2ccc(-c3cccc(OCc4ccc(C#N)c5c4OCCC5)n3)cc2F)nc2ccc(C(=O)O)cc21	GLP-1R (Homo sapiens, UniProt P43220)	7.68
COCCn1c(Cc2cc(F)c(-c3cccc(OCc4ccn(-c5ccccc5)n4)n3)cc2F)nc2ccc(C(=O)O)cc21	GLP-1R (Homo sapiens, UniProt P43220)	7.38
COCCn1c(Cc2ccc(-c3cccc(NCc4ccc(C#N)cc4F)n3)cc2F)nc2ccc(C(=O)O)cc21	GLP-1R (Homo sapiens, UniProt P43220)	6.29
N#Cc1ccc(COc2cccc(-c3cc(F)c(Cc4nc5c(F)cc(C(=O)O)cc5n4C[C@@H]4CCO4)cc3F)n2)c(F)c1	GLP-1R (Homo sapiens, UniProt P43220)	10.52
CC1(C)CC(Cn2c(Cc3ccc(-c4cccc(OCc5ccc(C#N)cc5F)n4)cc3F)nc3ccc(C(=O)O)cc32)O1 (stereo not drawn) [Example 263]	GLP-1R (Homo sapiens, UniProt P43220)	7.04
CC12COC(Cn3c(Cc4cc(F)c(-c5cccc(OCc6ccc(C#N)cc6F)n5)cc4F)nc4ccc(C(=O)O)cc43)(C1)C2	GLP-1R (Homo sapiens, UniProt P43220)	7.65
COCCn1c(Cc2ccc(-c3cccc(OCc4cc(C(F)(F)F)ccc4OC)n3)cc2F)nc2ccc(C(=O)O)cc21	GLP-1R (Homo sapiens, UniProt P43220)	5.90
CCn1cncc1Cn1c(Cc2ccc(-c3cccc(OCc4ccc(C#N)cc4F)n3)c(F)c2)nc2c(F)cc(C(=O)O)cc21	GLP-1R (Homo sapiens, UniProt P43220)	9.80
COc1cc(C#N)ccc1COc1nccc(-c2cc(F)c(Cc3nc4c(F)cc(C(=O)O)cc4n3C[C@@H]3CCO3)cc2F)n1	GLP-1R (Homo sapiens, UniProt P43220)	10.00
COCCn1c(Cc2cc(F)c(-c3cccc(OCc4ccc(OC)nc4)n3)cc2F)nc2ccc(C(=O)O)cc21	GLP-1R (Homo sapiens, UniProt P43220)	7.79
CC1(Cn2c(Cc3ccc(-c4cccc(OCc5ccc(C#N)cc5F)n4)cc3F)nc3ccc(C(=O)O)nc32)CC1	GLP-1R (Homo sapiens, UniProt P43220)	8.44
CCOC(=O)c1ccc2nc(Cc3cc(F)c(-c4cccc(OCc5ccc(C#N)cc5F)n4)cc3F)n(CCOC)c2c1	GLP-1R (Homo sapiens, UniProt P43220)	6.27
COCCn1c(Cc2cc(F)c(-c3ccnc(OCc4ccc(C#N)cc4OC)n3)cc2F)nc2ccc(C(=O)O)cc21	GLP-1R (Homo sapiens, UniProt P43220)	9.11
COCCn1c(Cc2cc(F)c(-c3cccc(OCc4cc(F)c(C#N)cc4F)n3)cc2F)nc2ccc(C(=O)O)cc21	GLP-1R (Homo sapiens, UniProt P43220)	8.31
COCCn1c(Cc2cc(F)c(-c3cccc(OCc4ccc(F)cc4Cl)n3)cc2F)nc2ccc(C(=O)O)cc21	GLP-1R (Homo sapiens, UniProt P43220)	8.37
